Biological target: p52p52 homodimer (Homo sapiens, UniProt Q00653 4-332)
Sequence: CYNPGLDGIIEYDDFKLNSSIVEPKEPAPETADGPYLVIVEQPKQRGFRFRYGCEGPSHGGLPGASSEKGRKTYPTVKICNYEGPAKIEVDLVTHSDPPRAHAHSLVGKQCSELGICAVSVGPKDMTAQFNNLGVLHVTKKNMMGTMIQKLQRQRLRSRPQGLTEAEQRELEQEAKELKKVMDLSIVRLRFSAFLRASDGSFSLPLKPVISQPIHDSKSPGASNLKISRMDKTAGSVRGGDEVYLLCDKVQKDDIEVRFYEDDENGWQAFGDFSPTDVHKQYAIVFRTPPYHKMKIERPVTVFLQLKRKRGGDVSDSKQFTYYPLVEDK
Assay: protein binding microarray; high values mean tight binding
Settings: dsDNA, one strand shown
measurement.kind: binding signal (z-score)
Give a bare numeral; the unit z-score is implied.

Below are worked cases with known answers.
[
  {
    "input.sequence": "AAGTTGTTCCT",
    "measurement.kind": "binding signal",
    "recorded.result": -0.438
  },
  {
    "input.sequence": "AAAGTGCCCCC",
    "measurement.kind": "binding signal",
    "recorded.result": 0.518
  },
  {
    "input.sequence": "GAAGGAGTCCT",
    "measurement.kind": "binding signal",
    "recorded.result": -0.648
  },
  {
    "input.sequence": "AGGAGGATCCT",
    "measurement.kind": "binding signal",
    "recorded.result": -0.694
  }
]

Lab note: need binding signal with p52p52 homodimer (Homo sapiens, UniProt Q00653 4-332) for entry CGATAAGCCCC , please look it up.
0.22

Lab note: need binding signal with p52p52 homodimer (Homo sapiens, UniProt Q00653 4-332) for entry AAATTTTTCCC , please look it up.
1.17

Lab note: need binding signal with p52p52 homodimer (Homo sapiens, UniProt Q00653 4-332) for entry CGAAGATCCCC , please look it up.
1.06

Lab note: need binding signal with p52p52 homodimer (Homo sapiens, UniProt Q00653 4-332) for entry GGAGAAACCCT , please look it up.
0.127

Lab note: need binding signal with p52p52 homodimer (Homo sapiens, UniProt Q00653 4-332) for entry CGGTGGATCCC , please look it up.
2.32

###

Biological target: RELB subunit;p52 subunit (Homo sapiens;Homo sapiens, UniProt Q01201;Q00653 120-401;4-332)
Sequence 1: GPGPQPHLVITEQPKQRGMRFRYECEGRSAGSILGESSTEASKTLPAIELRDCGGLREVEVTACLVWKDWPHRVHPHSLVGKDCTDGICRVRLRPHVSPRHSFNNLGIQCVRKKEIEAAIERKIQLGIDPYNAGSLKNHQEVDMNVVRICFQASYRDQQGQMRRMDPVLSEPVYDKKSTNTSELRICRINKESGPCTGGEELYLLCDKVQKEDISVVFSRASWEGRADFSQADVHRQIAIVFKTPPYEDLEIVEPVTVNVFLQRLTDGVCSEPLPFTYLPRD
Sequence 2: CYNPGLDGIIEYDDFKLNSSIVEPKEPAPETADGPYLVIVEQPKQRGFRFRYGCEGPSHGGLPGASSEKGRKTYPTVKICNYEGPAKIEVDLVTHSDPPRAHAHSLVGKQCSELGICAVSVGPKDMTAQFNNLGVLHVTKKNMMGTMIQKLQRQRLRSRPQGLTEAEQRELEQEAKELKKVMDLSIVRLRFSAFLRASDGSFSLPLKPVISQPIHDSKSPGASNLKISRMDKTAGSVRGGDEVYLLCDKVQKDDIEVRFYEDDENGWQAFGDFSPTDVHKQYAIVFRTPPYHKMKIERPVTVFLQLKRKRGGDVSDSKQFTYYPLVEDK
Assay: protein binding microarray; high values mean tight binding
Conditions: dsDNA, one strand shown
We begin with a simple list: items and their reported binding signal.
Returns: string containing the number followed by the unit.

Below are worked cases with known answers.
[
  {
    "input.sequence": "AGGTTGGCCCC",
    "binding signal": "-0.238 z-score"
  },
  {
    "input.sequence": "CAAGGCCCCCT",
    "binding signal": "0.508 z-score"
  },
  {
    "input.sequence": "CGATTGACCCC",
    "binding signal": "-0.411 z-score"
  }
]

# get_value(readout='binding signal', item= AAAGGAGTCCC )
0.607 z-score

# get_value(readout='binding signal', item= AGAGGCCTCCT )
-0.973 z-score

# get_value(readout='binding signal', item= AAATACGCCCT )
-0.751 z-score

# get_value(readout='binding signal', item= GGAATACTCCC )
-0.125 z-score

# get_value(readout='binding signal', item= AGAGAGGCCCC )
-0.35 z-score

# get_value(readout='binding signal', item= CGGAACACCCT )
-0.287 z-score

# get_value(readout='binding signal', item= CAGATGTTCCT )
-0.843 z-score

###

biological target: RELA (p65) subunit of heterodimer;p52 subunit (Homo sapiens;Homo sapiens, UniProt Q04206;Q00653 1-307;4-332); assay: protein binding microarray; high values mean tight binding; conditions: dsDNA, one strand shown
Sequence (Q04206 1-307, one chain of several): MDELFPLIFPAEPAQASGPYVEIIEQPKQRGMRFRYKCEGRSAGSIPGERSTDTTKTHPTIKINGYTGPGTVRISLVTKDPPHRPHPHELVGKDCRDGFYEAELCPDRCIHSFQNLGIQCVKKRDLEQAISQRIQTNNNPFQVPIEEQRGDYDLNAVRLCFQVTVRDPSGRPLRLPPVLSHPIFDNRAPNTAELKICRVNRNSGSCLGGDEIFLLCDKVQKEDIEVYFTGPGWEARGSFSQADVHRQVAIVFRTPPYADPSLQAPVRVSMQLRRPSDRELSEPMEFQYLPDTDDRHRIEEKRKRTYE
measurement.kind: binding signal
Returns: string containing the number followed by the unit.

[
  {
    "input.sequence": "AAGTGCTCCCT",
    "binding signal": "-0.51 z-score"
  },
  {
    "input.sequence": "AAGAGCATCCT",
    "binding signal": "-1.17 z-score"
  }
]

Alright, here's another sequence for you.
# get_value(readout='binding signal', item= AGGGGATCCCT )
1.95 z-score

###

Molecular target: C-Rel subunit;p52 subunit (Homo sapiens;Homo sapiens, UniProt Q04864;Q00653 1-285;4-332)
Sequence 1: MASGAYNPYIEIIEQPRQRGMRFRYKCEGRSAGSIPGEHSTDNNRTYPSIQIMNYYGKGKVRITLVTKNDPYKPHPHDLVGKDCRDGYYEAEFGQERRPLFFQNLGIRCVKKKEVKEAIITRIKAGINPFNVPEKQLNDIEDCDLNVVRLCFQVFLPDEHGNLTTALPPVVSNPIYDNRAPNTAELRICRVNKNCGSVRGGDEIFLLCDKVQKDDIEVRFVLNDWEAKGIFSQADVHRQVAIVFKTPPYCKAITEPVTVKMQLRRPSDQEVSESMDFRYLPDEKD
Sequence 2: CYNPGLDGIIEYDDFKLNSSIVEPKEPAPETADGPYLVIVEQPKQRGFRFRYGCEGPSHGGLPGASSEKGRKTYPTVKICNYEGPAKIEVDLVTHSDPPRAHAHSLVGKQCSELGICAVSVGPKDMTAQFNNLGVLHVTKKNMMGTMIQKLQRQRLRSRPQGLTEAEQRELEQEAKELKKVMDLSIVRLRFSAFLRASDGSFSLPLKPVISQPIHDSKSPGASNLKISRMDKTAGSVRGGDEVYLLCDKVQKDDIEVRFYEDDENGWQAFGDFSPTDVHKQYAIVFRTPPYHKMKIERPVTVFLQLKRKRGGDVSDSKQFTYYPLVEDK
Experiment: protein binding microarray; high values mean tight binding
Conditions: dsDNA, one strand shown
# cutoff 0.07 z-score applies to binding signal; >= gives satisfied, < gives not satisfied

[
  {
    "input.sequence": "CAATACGCCCC",
    "group": "satisfied"
  },
  {
    "input.sequence": "GAGGTTGCCCT",
    "group": "not satisfied"
  },
  {
    "input.sequence": "CAATTCCTCCT",
    "group": "not satisfied"
  },
  {
    "input.sequence": "GAGAAGCCCCT",
    "group": "satisfied"
  },
  {
    "input.sequence": "GGAAATCCCCT",
    "group": "satisfied"
  }
]

Assess whether reported binding signal for CGATATTTCCT sits at 0.07 z-score or higher.
not satisfied

Assess whether reported binding signal for GGAAGGGCCCC sits at 0.07 z-score or higher.
satisfied

Assess whether reported binding signal for AGAGAACTCCT sits at 0.07 z-score or higher.
not satisfied

Assess whether reported binding signal for GAGAACTTCCT sits at 0.07 z-score or higher.
not satisfied

Assess whether reported binding signal for CAAAAGTTCCC sits at 0.07 z-score or higher.
satisfied

Assess whether reported binding signal for GAGATTGCCCC sits at 0.07 z-score or higher.
satisfied

###

Target: C-Rel subunit;p52 subunit (Homo sapiens;Homo sapiens, UniProt Q04864;Q00653 1-285;4-332)
Sequence 1: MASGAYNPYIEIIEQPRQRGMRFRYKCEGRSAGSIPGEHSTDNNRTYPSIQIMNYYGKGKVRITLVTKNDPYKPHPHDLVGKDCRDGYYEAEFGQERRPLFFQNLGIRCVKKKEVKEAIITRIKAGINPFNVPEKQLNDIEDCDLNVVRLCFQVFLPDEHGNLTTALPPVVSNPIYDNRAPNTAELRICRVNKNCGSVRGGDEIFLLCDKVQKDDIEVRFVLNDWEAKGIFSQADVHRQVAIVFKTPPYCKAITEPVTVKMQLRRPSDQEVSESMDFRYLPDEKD
Sequence 2: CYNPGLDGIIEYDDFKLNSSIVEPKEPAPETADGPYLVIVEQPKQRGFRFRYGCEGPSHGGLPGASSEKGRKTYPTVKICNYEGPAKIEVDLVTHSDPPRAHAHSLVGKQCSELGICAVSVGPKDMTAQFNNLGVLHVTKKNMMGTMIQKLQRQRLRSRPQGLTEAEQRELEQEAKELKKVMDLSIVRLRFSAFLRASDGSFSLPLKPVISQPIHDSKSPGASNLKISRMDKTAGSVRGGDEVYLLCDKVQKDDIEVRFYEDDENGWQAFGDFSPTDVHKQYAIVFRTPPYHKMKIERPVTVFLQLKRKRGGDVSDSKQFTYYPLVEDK
Assay: protein binding microarray; high values mean tight binding
Conditions: dsDNA, one strand shown
We begin with a simple list: items and their reported binding signal.
Give a bare numeral; the unit z-score is implied.

Below are worked cases with known answers.
[
  {
    "input.sequence": "AAAGAGACCCT",
    "recorded.result": -0.688
  },
  {
    "input.sequence": "AGAAGCATCCC",
    "recorded.result": -0.81
  },
  {
    "input.sequence": "CAATTACCCCT",
    "recorded.result": 0.899
  },
  {
    "input.sequence": "AGATGGTTCCT",
    "recorded.result": -0.824
  },
  {
    "input.sequence": "GAAAGTGTCCT",
    "recorded.result": -0.375
  },
  {
    "input.sequence": "AGGTGACTCCT",
    "recorded.result": -0.779
  },
  {
    "input.sequence": "AAGTAAGTCCC",
    "recorded.result": 0.419
  },
  {
    "input.sequence": "AGATTCGCCCC",
    "recorded.result": -0.0556
  },
  {
    "input.sequence": "CAAAGCGTCCT",
    "recorded.result": -0.973
  },
  {
    "input.sequence": "CGATTGACCCC",
    "recorded.result": -0.184
  }
]

Lab note: need binding signal with C-Rel subunit;p52 subunit (Homo sapiens;Homo sapiens, UniProt Q04864;Q00653 1-285;4-332) for entry AAAATGATCCC , please look it up.
-0.512

Lab note: need binding signal with C-Rel subunit;p52 subunit (Homo sapiens;Homo sapiens, UniProt Q04864;Q00653 1-285;4-332) for entry GGAGTCCTCCC , please look it up.
-0.576

Lab note: need binding signal with C-Rel subunit;p52 subunit (Homo sapiens;Homo sapiens, UniProt Q04864;Q00653 1-285;4-332) for entry AGATTCCTCCC , please look it up.
-0.118

Lab note: need binding signal with C-Rel subunit;p52 subunit (Homo sapiens;Homo sapiens, UniProt Q04864;Q00653 1-285;4-332) for entry CAGAGACCCCC , please look it up.
0.174

Lab note: need binding signal with C-Rel subunit;p52 subunit (Homo sapiens;Homo sapiens, UniProt Q04864;Q00653 1-285;4-332) for entry CAGGTGCTCCT , please look it up.
-0.565

Lab note: need binding signal with C-Rel subunit;p52 subunit (Homo sapiens;Homo sapiens, UniProt Q04864;Q00653 1-285;4-332) for entry CAATACATCCC , please look it up.
-0.69
